target: HLA-B*15:17; test: IEDB peptide-MHC binding, purified MHC/competitive/fluorescence; filed as Kd, often an IC50 or EC50 that approximates it; bounds were set here for any values at or beyond the usual limits of such assays; settings: source organism: Lyssavirus rabies
readout-kind: Kd (µM)
Please state the figure in µM; there is no need to write the unit.

Q: If you can, please state the reported Kd value of `RQMKSGGRF` .
A: 0.631

* * *

target: HLA-B*39:01; assay: IEDB peptide-MHC binding, purified MHC/competitive/fluorescence; filed as Kd, often an IC50 or EC50 that approximates it; bounds were set here for any values at or beyond the usual limits of such assays; settings: source organism: Campylobacter jejuni subsp. jejuni NCTC 11168 = ATCC 700819
readout-kind: Kd

Q: Reported Kd, sequence `KGMKIQHFK` : ____
A: ≥ 20 µM

* * *

target: HLA-B*27:03; assay: IEDB peptide-MHC binding, purified MHC/competitive/fluorescence; filed as Kd, often an IC50 or EC50 that approximates it; bounds were set here for any values at or beyond the usual limits of such assays; conditions: source organism: Cryptosporidium parvum Iowa II
readout-kind: Kd

Q: So what's the measured Kd for this one? `MSQMPPHPY`
A: ≥ 20 µM

* * *

biological target: HLA-A*02:11; assay: IEDB peptide-MHC binding, purified MHC/competitive/fluorescence; filed as Kd, often an IC50 or EC50 that approximates it; bounds were set here for any values at or beyond the usual limits of such assays; settings: source organism: Rickettsia typhi str. Wilmington
readout-kind: Kd

Q: For `QLEVRSTEV` , what is its reported Kd?
A: ≥ 20 µM

* * *

target: HLA-A*02:03; test: IEDB peptide-MHC binding, purified MHC/direct/fluorescence; filed as Kd, often an IC50 or EC50 that approximates it; bounds were set here for any values at or beyond the usual limits of such assays; conditions: source organism: Cryptosporidium parvum Iowa II
pKd: −log10 of the molar value.
readout-kind: pKd

Q: Endpoint output: pKd of `MSQMPPHPY` . Value?
A: ≤ 4.70

* * *

target: HLA-B*15:17; test: IEDB peptide-MHC binding, purified MHC/competitive/fluorescence; filed as Kd, often an IC50 or EC50 that approximates it; bounds were set here for any values at or beyond the usual limits of such assays; conditions: source organism: Shigella boydii CDC 3083-94
readout-kind: Kd

Q: Entry `RNNDPTLPY` : reported Kd = ?
A: ≥ 20 µM

* * *

target: HLA-B*18:01; test: IEDB peptide-MHC binding, purified MHC/direct/fluorescence; filed as Kd, often an IC50 or EC50 that approximates it; bounds were set here for any values at or beyond the usual limits of such assays; conditions: source organism: Campylobacter jejuni RM1221
Exercise: for every item that follows, state its recorded Kd.

Q: What value of Kd has been reported for the following sequence? `VQKVNPAPK`
A: ≥ 20 µM

Q: Using the record for `AKYEICLEK` , report its Kd.
A: ≥ 20 µM

* * *

target: HLA-A*02:03; assay: IEDB peptide-MHC binding, purified MHC/competitive/radioactivity; filed as Kd, often an IC50 or EC50 that approximates it; bounds were set here for any values at or beyond the usual limits of such assays; conditions: source organism: Vaccinia virus WR
pKd: −log10 of the molar value.
Mark no for pKd values under 6, and yes for everything at or above.

Q: Is pKd for `FIVYGRSNA` at or above 6?
A: yes

Q: Please tell me: is the sequence `IADIRDKYM` at or over 6 in terms of pKd?
A: yes

Q: Confirm if pKd reported for the sequence `RTIDAINKCV` is 6 or above.
A: yes

Q: Is pKd at least 6? Consider `SLIYYQNEVT`
A: yes

Q: I'd appreciate it if you could say whether `SIAMLKSKNI` has pKd at least equal to 6.
A: yes

Q: # check: pKd of `FLPQIGGEAI` is greater than or equal to 6
A: yes

Q: For this sequence, is measured pKd 6 or higher? `DLLFNEKLKV`
A: yes

Q: Please indicate if the recorded pKd for `IMETIDPVYI` meets or exceeds 6.
A: yes

Q: Evaluate `RQLTSNVDV` : pKd at minimum 6?
A: no

Q: Would you say `RTMPNESRV` shows pKd at minimum 6?
A: yes

Q: Kindly determine if pKd recorded for `ATQFNFNGHT` is above or exactly 6.
A: no

Q: Hello, I need to know if `DVERLQMAGV` has measured pKd not below 6. Thanks!
A: yes

Q: Test whether the sequence `IVSLCPTKKL` records pKd of 6 or higher.
A: yes

Q: Dear colleague, could you confirm whether `GIKNLKSLL` has pKd at or above 6?
A: no

Q: Threshold query (pKd >= 6) on `EMKYALINL`
A: yes

Q: Hello, I need to know if `RILSEKRKDT` has measured pKd not below 6. Thanks!
A: no

* * *

molecular target: HLA-A*01:01; assay: IEDB peptide-MHC binding, purified MHC/competitive/fluorescence; filed as Kd, often an IC50 or EC50 that approximates it; bounds were set here for any values at or beyond the usual limits of such assays; conditions: source organism: Escherichia coli O139:H28 str. E24377A
readout-kind: Kd

Q: Query: Kd; subject: `LSDICSGLQ`
A: ≥ 20 µM

* * *

target: HLA-C*06:02; assay: IEDB peptide-MHC binding, purified MHC/direct/fluorescence; filed as Kd, often an IC50 or EC50 that approximates it; bounds were set here for any values at or beyond the usual limits of such assays; conditions: source organism: human gammaherpesvirus 4
readout-kind: pKd
Keep in mind that pKd stands for -log10 of concentration in molar terms.

Q: So what does the record say about pKd for `RRVRRRVLV` ?
A: 6.50

* * *

target: HLA-A*02:01; assay: IEDB peptide-MHC binding, purified MHC/direct/fluorescence; filed as Kd, often an IC50 or EC50 that approximates it; bounds were set here for any values at or beyond the usual limits of such assays; conditions: source organism: Rickettsia bellii OSU 85-389
readout-kind: Kd

Q: Could you share what Kd was measured for `EDFEIFYNL` , tested on HLA-A*02:01?
A: ≥ 20 µM

* * *

Please provide measured Kd for the entries that follow.
molecular target: HLA-A*11:01; assay: IEDB peptide-MHC binding, purified MHC/direct/fluorescence; filed as Kd, often an IC50 or EC50 that approximates it; bounds were set here for any values at or beyond the usual limits of such assays; details: source organism: Vibrio parahaemolyticus

Q: Fill in: Kd of `ILLRKGHVF` is ___
A: ≥ 20 µM

Q: Reported Kd, sequence `VQGYERIMY` : ____
A: ≥ 20 µM

* * *

target: HLA-A*68:02; assay: IEDB peptide-MHC binding, purified MHC/direct/fluorescence; filed as Kd, often an IC50 or EC50 that approximates it; bounds were set here for any values at or beyond the usual limits of such assays; conditions: source organism: Entamoeba histolytica
readout-kind: Kd

Q: // query Kd value for entry `DFGYATMAK`
A: ≥ 20 µM

* * *

target: HLA-A*02:11; assay: IEDB peptide-MHC binding, purified MHC/direct/fluorescence; filed as Kd, often an IC50 or EC50 that approximates it; bounds were set here for any values at or beyond the usual limits of such assays; conditions: source organism: Encephalitozoon cuniculi GB-M1
readout-kind: Kd

Q: Could you tell me which Kd is on file for `MPFDPSELV` ?
A: ≥ 20 µM

* * *

target: HLA-B*08:03; test: IEDB peptide-MHC binding, purified MHC/direct/fluorescence; filed as Kd, often an IC50 or EC50 that approximates it; bounds were set here for any values at or beyond the usual limits of such assays; conditions: source organism: Influenza A virus (A/Taiwan/2/2006(H1N1))
readout-kind: Kd (nM)
Answer format: numeric, nM implied, no suffix.

Q: Param readout= Kd; system= HLA-B*08:03; entry= `LAKSVFNSL` ; returns value.
A: 2130

* * *

target: HLA-B*08:01; assay: IEDB peptide-MHC binding, purified MHC/direct/fluorescence; filed as Kd, often an IC50 or EC50 that approximates it; bounds were set here for any values at or beyond the usual limits of such assays; settings: source organism: Vibrio vulnificus
readout-kind: Kd (nM)
// note: answer is a bare numeric in nM

Q: Kd for `ILLRKGHVF` ?
A: 107

* * *

target: HLA-B*18:01; test: IEDB peptide-MHC binding, purified MHC/competitive/radioactivity; filed as Kd, often an IC50 or EC50 that approximates it; bounds were set here for any values at or beyond the usual limits of such assays; settings: source organism: Mammarenavirus lassaense
pKd: −log10 of the molar value.
readout-kind: pKd

Q: Reported pKd for `KEAYCQEFLL` : what is it?
A: ≤ 4.34

* * *

target: HLA-A*68:01; test: IEDB peptide-MHC binding, purified MHC/competitive/radioactivity; filed as Kd, often an IC50 or EC50 that approximates it; bounds were set here for any values at or beyond the usual limits of such assays; details: source organism: SARS coronavirus Tor2
Assignment: determine reported log10 Kd for the given sequences.
// stored as log10 of Kd expressed in nM

Q: Sample `SLTVLFDGR` — what was its log10 Kd?
A: 3.13

Q: Looking for the measured log10 Kd of `DQDALFAYTK` , can you help?
A: 3.10

Q: Recorded log10 Kd for `RFQPFQQFGR` , please?
A: 2.73

Q: // query log10 Kd value for entry `FVFPLNSKVK`
A: 0.94

Q: Form field: reported log10 Kd of `VLTSEEVVLK`
A: 3.32

Q: What value of log10 Kd has been recorded for this entry: `LAMDEFIQR`
A: 2.79

Q: # input sequence: `VTCAAYYFMK` ; wanted: its log10 Kd
A: 1.69

Q: Reported log10 Kd for `GVVREFLTR` : what is it?
A: 2.27

Q: Data request, read-out log10 Kd, for `FLKEQHCQK`
A: 3.12

Q: Query: log10 Kd; subject: `QTVKPGNFNK`
A: 2.62

Q: Param item = `AFHTPAFDK` ; retrieve measured log10 Kd.
A: 3.93

Q: Look up log10 Kd for this sequence: `FLLNKEMYLK`
A: 2.99

Q: log10 Kd lookup needed for `SFIEDLLFNK` , thanks.
A: 2.86

Q: Requested read-out: log10 Kd. Entry: `NLLDSYFVVK`
A: 3.37

Q: # log10 Kd lookup, item `MQNCLLRLK`
A: 3.14

Q: Can you share its log10 Kd? I mean this sequence: `TFFSTFKCY`
A: 3.03

Q: Field request: log10 Kd | item: `SLTSLLKTHR`
A: 2.84

Q: Entry `SVFYLYLTFY` has what log10 Kd?
A: 2.00

Q: Given `IMASLVLAR` , state its recorded log10 Kd.
A: 1.45

Q: // lookup log10 Kd for `PVNQFTGYLK`
A: 3.35
